# PROTOCOL_TEXT: Inhibition of pig trypsin
# Set-up: species or system Sus scrofa
MEASUREMENT_KIND: IC50 (mM)
State just the number; it will be interpreted in mM.

// sample `COc1ccc(NC(=O)c2cc(-c3ccc(NC(=N)N)cc3)on2)c(OC)c1` , its IC50 was 4.2

----------
# EXPERIMENTAL_SYSTEM: Acrosin (Homo sapiens, UniProt P10323)
# Sequence (P10323 20-42 limits assumed): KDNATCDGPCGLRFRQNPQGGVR
# Sequence (P10323 43-343 limits assumed): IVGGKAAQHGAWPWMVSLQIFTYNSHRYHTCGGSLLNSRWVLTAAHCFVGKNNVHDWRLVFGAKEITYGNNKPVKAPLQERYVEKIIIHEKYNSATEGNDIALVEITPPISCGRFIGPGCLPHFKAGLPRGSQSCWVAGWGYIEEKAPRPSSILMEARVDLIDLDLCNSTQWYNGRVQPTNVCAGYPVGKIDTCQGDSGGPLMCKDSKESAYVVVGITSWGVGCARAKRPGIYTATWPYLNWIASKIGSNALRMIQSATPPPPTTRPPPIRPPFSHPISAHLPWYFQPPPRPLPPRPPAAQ
Each item that follows carries a reported IC50.
State just the number; it will be interpreted in µM.

Reference set (10 entries):
STRUCTURE_SMILES: N=C(N)Nc1ccc(-c2cc(C(=O)Nc3cccc(Cl)c3)no2)cc1
EXPERIMENTAL_SYSTEM: Acrosin (Homo sapiens, UniProt P10323)
IC50 (µM): 25.4
//
STRUCTURE_SMILES: CCOC(=O)c1cc(-c2ccc(NC(=O)c3ccccc3)cc2)on1
EXPERIMENTAL_SYSTEM: Acrosin (Homo sapiens, UniProt P10323)
IC50 (µM): 460
//
STRUCTURE_SMILES: Cc1ccccc1NC(=O)c1cc(-c2ccc(NC(=N)N)cc2)on1
EXPERIMENTAL_SYSTEM: Acrosin (Homo sapiens, UniProt P10323)
IC50 (µM): 14.4
//
STRUCTURE_SMILES: Cc1cc(C)cc(NC(=O)c2cc(-c3ccc(NC(=N)N)cc3)on2)c1
EXPERIMENTAL_SYSTEM: Acrosin (Homo sapiens, UniProt P10323)
IC50 (µM): 12.1
//
STRUCTURE_SMILES: CC(C)(C)c1ccc(NC(=O)c2cc(-c3ccc(NC(=N)N)cc3)on2)cc1
EXPERIMENTAL_SYSTEM: Acrosin (Homo sapiens, UniProt P10323)
IC50 (µM): 7.8
//
STRUCTURE_SMILES: N=C(N)Nc1ccc(-c2cc(C(=O)Nc3ccc(C(F)(F)F)cc3)no2)cc1
EXPERIMENTAL_SYSTEM: Acrosin (Homo sapiens, UniProt P10323)
IC50 (µM): 20.3
//
STRUCTURE_SMILES: COc1ccc(OC)c(NC(=O)c2cc(-c3ccc(NC(=N)N)cc3)on2)c1
EXPERIMENTAL_SYSTEM: Acrosin (Homo sapiens, UniProt P10323)
IC50 (µM): 2.3
//
STRUCTURE_SMILES: N=C(N)Nc1ccc(-c2cc(C(=O)Nc3ccccc3)no2)cc1
EXPERIMENTAL_SYSTEM: Acrosin (Homo sapiens, UniProt P10323)
IC50 (µM): 24.6
//
STRUCTURE_SMILES: N=C(N)Nc1ccc(-c2cc(C(=O)Nc3ccccc3Br)no2)cc1
EXPERIMENTAL_SYSTEM: Acrosin (Homo sapiens, UniProt P10323)
IC50 (µM): 27.9
//
STRUCTURE_SMILES: CCOC(=O)c1cc(-c2ccc(NC(=O)c3ccccc3Cl)cc2)on1
EXPERIMENTAL_SYSTEM: Acrosin (Homo sapiens, UniProt P10323)
IC50 (µM): 60

// sample `Cc1cccc(C)c1NC(=O)c1cc(-c2ccc(NC(=N)N)cc2)on1` , its IC50 was 5.7

// sample `Cc1cccc(NC(=O)c2cc(-c3ccc(NC(=N)N)cc3)on2)c1C` , its IC50 was 11.5

// sample `N=C(N)Nc1ccc(-c2cc(C(=O)Nc3ccc(F)cc3)no2)cc1` , its IC50 was 20.5

// sample `COc1cccc(NC(=O)c2cc(-c3ccc(NC(=N)N)cc3)on2)c1` , its IC50 was 6.6

// sample `CCOC(=O)c1cc(-c2ccc(NC(=O)c3ccc(Cl)c(Cl)c3)cc2)on1` , its IC50 was 240

Sourced from ChEMBL document CHEMBL3286296
